tested.system: CRTH2 receptor (hCRTH2) (Homo sapiens, UniProt Q9Y5Y4)
Construct: expressed in transfected cells; host or cells: HEK cells (HEK-hCRTH2 cell line), membranes
Sequence (Q9Y5Y4 1-395): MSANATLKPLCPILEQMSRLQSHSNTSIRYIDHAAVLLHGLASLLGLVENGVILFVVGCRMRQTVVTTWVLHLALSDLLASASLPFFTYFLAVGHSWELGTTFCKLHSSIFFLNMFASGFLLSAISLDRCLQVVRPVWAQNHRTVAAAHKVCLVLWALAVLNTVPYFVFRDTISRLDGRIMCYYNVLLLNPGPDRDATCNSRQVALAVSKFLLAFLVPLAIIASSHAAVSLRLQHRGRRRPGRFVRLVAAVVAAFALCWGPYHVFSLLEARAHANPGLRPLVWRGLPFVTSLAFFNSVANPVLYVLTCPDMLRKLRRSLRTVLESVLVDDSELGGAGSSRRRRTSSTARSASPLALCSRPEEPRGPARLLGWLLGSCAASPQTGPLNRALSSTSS
measurement.description: Radioligand binding assay ([3H]PGD2 competition, membranes of HEK-hCRTH2 cell line)
cond: 3.0 nM [3H]PGD2, HEK-hCRTH2 membranes, 60 min, room temperature; read-out: Ki
Would you mind telling me the reported Ki of each entry?

CC(CCCc1nc2cc(C3=NOC(C)(c4nc5ccccc5o4)C3)ccc2c(=O)n1-c1ccc(F)cc1)C(=O)O (centres unmarked) :: ≤ 10 nM

Please go through the list and note Ki for each molecule.
1. Cc1cccc2[nH]c([C@]3(C)CC(c4ccc5c(=O)n(-c6ccc(F)cc6)c(CCCCC(=O)O)nc5c4)=NO3)nc12
2. O=C(O)CCCCc1nc2cc(-c3cc(C4CC4)no3)ccc2c(=O)n1-c1ccc(F)cc1
3. CC(c1ccccc1)C1(C)CC(c2ccc3c(=O)n(-c4ccc(F)cc4)c(CCCCC(=O)O)nc3c2)=NO1 (single isomer, unassigned) [Example 42G]
4. O=C(O)CCCCc1nc2cc(-c3cc(Cn4nnc5ccccc54)on3)ccc2c(=O)n1-c1ccc(F)cc1
5. C[C@@]1(c2cc3ccccn3n2)CC(c2ccc3c(=O)n(-c4ccc(F)cc4)c(CCCCC(=O)O)nc3c2)=NO1

Result:
1: ≤ 10 nM; 2: 10 to 50 nM; 3: 10 to 50 nM; 4: ≤ 10 nM; 5: ≤ 10 nM

Please give Ki for each item listed below.
1. O=C(O)CCCCc1nc2cc(C3=NOC(c4nc5ccc(Cl)cc5o4)C3)ccc2c(=O)n1-c1ccc(F)cc1 (centres unmarked)
2. O=C(O)CCCCc1nc2cc(-c3cc(COCc4cccc(-c5ccccc5)c4)on3)ccc2c(=O)n1-c1ccc(F)cc1 [Example 281]
3. C[C@@]1([C@H](O)c2cccc(C#N)c2)CC(c2ccc3c(=O)n(-c4ccc(F)cc4)c(CCCCC(=O)O)nc3c2)=NO1

Result:
["≤ 10 nM", "10 to 50 nM", "≤ 10 nM"]

For every item in the list below, what is its measured Ki?
1. C[C@]1([C@H](O)c2ccc(F)cc2)CC(c2ccc3c(=O)n(-c4ccc(F)cc4)c(CCCCC(=O)O)nc3c2)=NO1
2. CC(O)(c1cccc(F)c1)c1cc(-c2ccc3c(=O)n(-c4ccc(F)cc4)c(CCCCC(=O)O)nc3c2)no1 (centres unmarked)
3. CC(CCCc1nc2cc(C3=NOC(C)([C@H](O)c4ccccc4)C3)ccc2c(=O)n1-c1ccc(F)cc1)C(=O)O (some centres unmarked)

Result:
1: 10 to 50 nM; 2: ≤ 10 nM; 3: 10 to 50 nM

// for each molecule in input: emit Ki
1. O=C(O)CCCCc1nc2cc(-c3noc(C4CCCc5ccccc54)n3)ccc2c(=O)n1-c1ccc(F)cc1 (centres unmarked) [Example 245]
2. C[C@@]1([C@@H](O)c2ccc(F)cc2)CC(c2ccc3c(=O)n(-c4ccc(F)cc4)c(CCCCC(=O)O)nc3c2)=NO1

Result:
1: 10 to 50 nM; 2: 10 to 50 nM

----------
tested.system: CRTH2 receptor (hCRTH2) (Homo sapiens, UniProt Q9Y5Y4)
Construct: expressed in transfected cells; host or cells: HEK cells (HEK-hCRTH2 cell line), membranes
measurement.description: Radioligand binding assay ([3H]PGD2 competition, membranes of HEK-hCRTH2 cell line)
cond: 3.0 nM [3H]PGD2, HEK-hCRTH2 membranes, 60 min, room temperature; read-out: Ki
Description: Competing ligands were diluted in dimethylsulfoxide (Me2SO) that was kept constant at 1% (v/v) of the final incubation volume. The reaction was initiated by the addition of 8-20 μg of membrane protein prepared from a HEK-hCRTH2 cell line. Total and non-specific binding were determined in the absence and the presence of 10 WI PGD2, respectively. […]
measurement.label: Ki

See these solved cases before continuing.
CO[C@@H](c1ccccc1)c1cc(-c2ccc3c(=O)n(-c4ccc(F)cc4)c(CCCCC(=O)O)nc3c2)no1 [Example 147] :: ≤ 10 nM
O=C(O)CCCCc1nc2cc(-c3cc(CNS(=O)(=O)c4cc(F)cc(F)c4)on3)ccc2c(=O)n1-c1ccc(F)cc1 [Example 24N] :: ≤ 10 nM

Dear colleague, could you send me Ki for each of the items below? Thanks.
1. CC(c1ccccc1)c1cc(-c2ccc3c(=O)n(-c4ccc(F)cc4)c(CCCCC(=O)O)nc3c2)no1 (stereo not shown) [Example 133]
2. CC1(C(=O)N2CCc3ccccc32)CC(c2ccc3c(=O)n(-c4ccc(F)cc4)c(CCCCC(=O)O)nc3c2)=NO1 (stereo not shown) [Example 211]

Result:
≤ 10 nM
≤ 10 nM

Return reported Ki values for all items listed beneath this line.
1. Cc1cc(-c2ccc3c(=O)n(-c4ccc(C(F)(F)F)cc4)c(CCCCC(=O)O)nc3c2)no1 [Example 13]
2. O=C(O)CCCCc1nc2cc(-c3cc(-c4ccc(Br)cc4)on3)ccc2c(=O)n1-c1ccc(F)cc1 [Example 157]

Result:
1. ≤ 10 nM
2. 10 to 50 nM

State recorded Ki for all listed molecules.
1. O=C(O)CCCCc1nc2cc(-c3cc(C(O)c4ccc5ccccc5n4)on3)ccc2c(=O)n1-c1ccc(F)cc1 (stereo not shown) [Example 25G]
2. O=C(O)CCCCc1nc2cc(-c3cc([C@@H](O)c4ccc(F)cc4)on3)ccc2c(=O)n1-c1ccccc1 [Example 25D]
3. C[C@@]1(c2nc3ccc(Cl)cc3[nH]2)CC(c2ccc3c(=O)n(-c4ccc(F)cc4)c(CCCCC(=O)O)nc3c2)=NO1 [Example 186]
4. CC1(c2nc3ccccn3c2Cl)CC(c2ccc3c(=O)n(-c4ccc(F)cc4)c(CCCCC(=O)O)nc3c2)=NO1 (stereo not shown) [Example 162]

Result:
≤ 10 nM
≤ 10 nM
≤ 10 nM
≤ 10 nM

# map each molecule to its Ki
1. CC(C)(C)OC(=O)C1(C)CC(c2ccc3c(=O)n(-c4ccc(F)cc4)c(CCCCC(=O)O)nc3c2)=NO1 (stereo not shown) [Example 192]
2. CC(c1ccccc1)C1(C)CC(c2ccc3c(=O)n(-c4ccc(F)cc4)c(CCCCC(=O)O)nc3c2)=NO1 (single isomer, unassigned) [Example 42]
3. CC1(C(=O)N2CCCCC2)CC(c2ccc3c(=O)n(-c4ccc(F)cc4)c(CCCCC(=O)O)nc3c2)=NO1 (stereo not shown) [Example 212]

Result:
1: ≤ 10 nM; 2: ≤ 10 nM; 3: 10 to 50 nM

----------
tested.system: CRTH2 receptor (hCRTH2) (Homo sapiens)
Construct: expressed in transfected cells; host or cells: HEK cells (HEK-hCRTH2 cell line), membranes
measurement.description: Radioligand binding assay ([3H]PGD2 competition, membranes of HEK-hCRTH2 cell line)
cond: 3.0 nM [3H]PGD2, HEK-hCRTH2 membranes, 60 min, room temperature; read-out: Ki
pKi: −log10 of the molar value.
measurement.label: pKi

Example compounds with recorded pKi:
CC[C@@](O)(c1ccc(F)cc1)c1cc(-c2ccc3c(=O)n(-c4ccc(F)cc4)c(CCCCC(=O)O)nc3c2)no1 :: ≥ 8.00
O=C(O)CCCCc1nc2cc(-c3cc(CNC(=O)c4ccccc4)on3)ccc2c(=O)n1-c1ccc(F)cc1 [Example 24F] :: ≥ 8.00
C[C@@]1(c2nc3cc(F)c(F)cc3[nH]2)CC(c2ccc3c(=O)n(-c4ccc(Cl)cc4)c(CCCCC(=O)O)nc3c2)=NO1 :: ≥ 8.00

Would you mind listing pKi for each of the following compounds?
1. COCC1(c2ccccc2)CC(c2ccc3c(=O)n(-c4ccc(Cl)cc4)c(CCCCC(=O)O)nc3c2)=NO1 (stereo not shown) [Example 15W]
2. O=C(O)CCCCc1nc2cc(-c3noc(-c4nc5ccc(F)cc5o4)n3)ccc2c(=O)n1-c1ccc(F)cc1

Result:
1. 7.30 to 8.00
2. 7.30 to 8.00

The following compounds each have a reported value; give each one's pKi.
1. C=C(c1ccccc1)c1cc(-c2ccc3c(=O)n(-c4ccc(F)cc4)c(CCCCC(=O)O)nc3c2)no1
2. O=C(O)CCCCc1nc2cc(-c3cc(Cc4ccccc4)on3)ccc2c(=O)n1-c1ccc(F)cc1

Result:
1. ≥ 8.00
2. ≥ 8.00
